# Test system: Coxsackievirus B5
# assayText: Antiviral activity against human CVB5 infected in african green monkey Vero76 cells assessed as inhibition of virus-induced cytopathogenicity after 3 days by plaque reduction assay
# Format: functional, organism-based
# particulars: Enterovirus B, Vero 76, 72 h
pEC50: −log10 of the molar value.
experimentalReadout: pEC50

Entry "C#C[C@@]1(O)[C@H](O)[C@@H](CO)O[C@H]1n1ccc(N)nc1=O" has what pEC50?
4.52

Entry "CC(C)(COc1ccc(-n2nc3ccccc3n2)cc1)C(=O)O" has what pEC50?
< 4.00

Entry "COc1ccc2nn(-c3ccc(OC(C)(C)C(=O)O)cc3)nc2c1" has what pEC50?
< 4.00

Entry "CC(C)(Oc1ccc(-n2nc3ccc(Cl)cc3n2)cc1)C(=O)O" has what pEC50?
< 4.00

Entry "NNC(=O)Cn1nnc2ccccc21" has what pEC50?
< 4.00

Entry "COc1ccc(-n2nc3cc(Cl)c(Cl)cc3n2)cc1" has what pEC50?
< 4.00

Entry "COc1cc(C(=O)OCCn2nc3ccccc3n2)cc(OC)c1OC" has what pEC50?
< 4.00

Entry "CC(C)(CCCOc1ccc(-n2nc3ccccc3n2)cc1)C(=O)O" has what pEC50?
5.40

Entry "C[C@@H](Oc1ccc(-n2nc3ccccc3n2)cc1)C(=O)O" has what pEC50?
< 4.00

Entry "NCCn1nnc2ccccc21" has what pEC50?
< 4.00

Entry "COc1cc(/C=C/C(=O)OCCn2nnc3ccccc32)cc(OC)c1OC" has what pEC50?
< 4.00

Entry "Cc1cc(-n2nc3ccccc3n2)cc(C)c1OC(C)(C)C(=O)O" has what pEC50?
< 4.00

Entry "Oc1ccc(-n2nc3cc(Cl)c(Cl)cc3n2)cc1" has what pEC50?
4.60

Entry "Nc1ccc(-n2nc3ccccc3n2)cc1" has what pEC50?
< 4.00

Entry "Clc1cc2nn(Cc3ccccc3)nc2cc1Cl" has what pEC50?
< 4.00

Entry "FC(F)(F)c1ccc2nn(Cc3ccccc3)nc2c1" has what pEC50?
< 4.00

Entry "COc1ccc2nn(-c3ccc(OCCCC(C)(C)C(=O)O)cc3)nc2c1" has what pEC50?
5.70

Entry "Cc1ccc2nn(-c3ccc(OC(C)(C)C(=O)O)cc3)nc2c1" has what pEC50?
< 4.00

Entry "CC(C)(CCCOc1ccc(-n2nc3ccc(Cl)cc3n2)cc1)C(=O)O" has what pEC50?
6.15

Entry "Cc1ccc(C)c(OCCCC(C)(C)C(=O)O)c1" has what pEC50?
< 4.00

Entry "[O-][n+]1c2cc(C(F)(F)F)ccc2nn1-c1ccc(O)cc1" has what pEC50?
4.12

Entry CC(CC(=O)O)n1nnc2ccc([N+](=O)[O-])cc21 (centres undefined) has what pEC50?
< 4.00

Entry "COc1ccc2nn(-c3ccc(OCC(C)(C)C(=O)O)cc3)nc2c1" has what pEC50?
4.62

Entry "FC(F)(F)c1ccc2nn(Cc3ccc(Cl)cc3)nc2c1" has what pEC50?
< 4.00

---

# assayText: Cytotoxicity against MDBK cells assessed as cell viability after 48 to 96 hrs by MTT assay
# Format: cell-based, Bos taurus
# particulars: cattle
experimentalReadout: CC50

Entry "CN(C)c1cccc(C(=O)OCCCn2nc3ccccc3n2)c1" has what CC50?
> 100 µM

Entry "COc1cc(/C=C/C(=O)OCCCn2nnc3ccccc32)cc(OC)c1OC" has what CC50?
83 µM

Entry "C#C[C@@]1(O)[C@H](O)[C@@H](CO)O[C@H]1n1ccc(N)nc1=O" has what CC50?
> 100 µM

Entry Cc1cc2nnn(C3CCCO3)c2cc1C (stereo not given) has what CC50?
> 100 µM

Entry "CC(C)(CCCOc1ccc(-n2nc3ccccc3n2)cc1)C(=O)O" has what CC50?
61 µM

Entry "C[C@H](Oc1ccc(-n2nc3ccccc3n2)cc1)C(=O)O" has what CC50?
> 100 µM

Entry "COc1ccccc1N1CCN(CCCOc2ccc(-n3nc4ccc(C(F)(F)F)cc4n3)cc2)CC1" has what CC50?
> 100 µM

Entry "NC(=O)c1ncn([C@@H]2O[C@H](CO)[C@@H](O)[C@H]2O)n1" has what CC50?
> 100 µM

Entry Clc1cc2nn(C3CCCCO3)nc2cc1Cl (stereo not given) has what CC50?
> 100 µM

Entry "O=C(O)COc1ccc(-n2nc3ccccc3[n+]2[O-])cc1" has what CC50?
> 100 µM

Entry "Cc1cc(-n2nc3ccccc3n2)cc(C)c1OC(C)(C)C(=O)O" has what CC50?
> 100 µM

Entry Clc1cc2nn(C3CCCO3)nc2cc1Cl (stereo not given) has what CC50?
> 100 µM

Entry "CC(C)(COc1ccc(-n2nc3ccc(Cl)cc3n2)cc1)C(=O)O" has what CC50?
52 µM

Entry Clc1c(Cl)c(Cl)c2nn(C3CCCO3)nc2c1Cl (stereo not given) has what CC50?
≥ 100 µM

Entry "Cc1ccc(C)c(OCCCC(C)(C)C(=O)O)c1" has what CC50?
> 100 µM

Entry "CC(=O)Nc1ccc(-n2nc3ccccc3n2)cc1" has what CC50?
100 µM

Entry "CC(C)(CCCOc1ccc(-n2nc3ccc(Cl)cc3n2)cc1)C(=O)O" has what CC50?
32 µM

Entry "NNC(=O)Cn1nnc2ccccc21" has what CC50?
> 100 µM

Entry "CN(C)C(=O)Cn1nc2ccccc2n1" has what CC50?
> 100 µM

Entry "Nc1nc2c(ncn2COCCO)c(=O)[nH]1" has what CC50?
> 100 µM

---

# assayText: Cytotoxicity against human MT4 cells assessed as cell viability after 96 hrs by MTT assay
# Assay type: cell-based
experimentalReadout: CC50 at 96 h

Entry "NCCn1nnc2ccccc21" has what CC50 at 96 h?
> 100 µM

Entry "FC(F)(F)c1ccc2c(c1)nnn2C[C@@H]1CCCN2CCCC[C@H]12" has what CC50 at 96 h?
> 100 µM

Entry "Oc1ccc(-n2nc3ccc(C(F)(F)F)cc3n2)cc1" has what CC50 at 96 h?
≥ 100 µM

Entry Clc1c(Cl)c(Cl)c2nn(C3CCCO3)nc2c1Cl (configuration not stated) has what CC50 at 96 h?
> 100 µM

Entry CC(CC(=O)O)n1nc2c(Cl)c(Cl)c(Cl)c(Cl)c2n1 (configuration not stated) has what CC50 at 96 h?
> 100 µM

Entry "Nc1ccc(-n2nc3ccccc3n2)cc1" has what CC50 at 96 h?
≥ 100 µM

Entry "[O-][n+]1c2cc(C(F)(F)F)ccc2nn1-c1ccc(O)cc1" has what CC50 at 96 h?
> 100 µM

Entry Cc1cc2nn(C3CCCO3)nc2cc1C (configuration not stated) has what CC50 at 96 h?
> 100 µM

Entry "CN(C)c1cccc(C(=O)OCCCn2nc3ccccc3n2)c1" has what CC50 at 96 h?
> 100 µM

Entry "CC(=O)Nc1ccc(-n2nc3ccccc3n2)cc1" has what CC50 at 96 h?
66 µM

Entry Clc1cc2nn(C3CCCO3)nc2cc1Cl (configuration not stated) has what CC50 at 96 h?
> 100 µM

Entry "O=C(O)COc1ccc(-n2nc3ccc(Cl)cc3[n+]2[O-])cc1" has what CC50 at 96 h?
> 100 µM

---

# assayText: Selectivity index, ratio of CC50 for human MT4 cells to EC50 for HIV-1
# Assay type: toxicity, cell-based
# particulars: human immunodeficiency virus 1, MT4 cells; read-out: Ratio CC50/EC50
experimentalReadout: selectivity ratio
I'd appreciate a reply containing only the number, no unit.

Entry "CN(C)c1cccc(C(=O)OCCn2nc3ccccc3n2)c1" has what selectivity ratio?
1.78

---

# assayText: Cytotoxicity against MDBK cells assessed as cell viability after 48 to 96 hrs by MTT assay
# Type: cell-based, Bos taurus
# particulars: cattle
Field: CC50. Provide a value for each of the molecules that follow.

Entry "COc1ccc2nn(-c3ccc(OC(C)(C)C(=O)O)cc3)nc2c1" has what CC50?
≥ 100 µM

Entry Cc1cc2nn(C3CCCO3)nc2cc1C (centres undefined) has what CC50?
> 100 µM

Entry "COc1cc(C(=O)OCCn2nnc3ccccc32)cc(OC)c1OC" has what CC50?
40 µM

Entry Clc1cc2nnn(C3CCCO3)c2cc1Cl (centres undefined) has what CC50?
> 100 µM

Entry "FC(F)(F)c1ccc2nn(Cc3ccc(Cl)cc3)nc2c1" has what CC50?
> 100 µM

Entry "CC(C)(Oc1ccc(-n2nc3ccc(Cl)cc3n2)cc1)C(=O)O" has what CC50?
≥ 100 µM

Entry "O=C(O)COc1ccc(-n2nc3ccc(Cl)cc3[n+]2[O-])cc1" has what CC50?
> 100 µM

Entry "FC(F)(F)c1ccc2nn(Cc3ccccc3)nc2c1" has what CC50?
> 100 µM

Entry "C[C@@]1(O)[C@H](O)[C@@H](CO)O[C@H]1n1cnc2c(=O)[nH]c(N)nc21" has what CC50?
> 100 µM

Entry "[O-][n+]1c2ccccc2nn1-c1ccc(O)cc1" has what CC50?
> 100 µM

Entry "COc1cc(C(=O)OCCCn2nnc3ccccc32)cc(OC)c1OC" has what CC50?
≥ 100 µM

Entry "C[C@@H](Oc1ccc(-n2nc3ccccc3n2)cc1)C(=O)O" has what CC50?
> 100 µM

Entry "Cc1ccc2nn(-c3ccc(OCC(C)(C)C(=O)O)cc3)nc2c1" has what CC50?
69 µM

Entry "COc1ccc(Cn2nc3ccc(C(F)(F)F)cc3n2)cc1" has what CC50?
> 100 µM

Entry "CN(C)c1cccc(C(=O)OCCn2nnc3ccccc32)c1" has what CC50?
≥ 100 µM

Entry "NCCn1nnc2ccccc21" has what CC50?
> 100 µM

Entry "COc1ccc(Cn2nc3cc(Cl)c(Cl)cc3n2)cc1" has what CC50?
> 100 µM

Entry "CN(C)C(=O)Cn1nnc2ccccc21" has what CC50?
> 100 µM

Entry "COc1ccc2nn(-c3ccc(OCCCC(C)(C)C(=O)O)cc3)nc2c1" has what CC50?
> 100 µM

Entry "Clc1ccc(Cn2nc3cc(Cl)c(Cl)cc3n2)cc1" has what CC50?
> 100 µM

Entry "Oc1ccc(-n2nc3cc(Cl)c(Cl)cc3n2)cc1" has what CC50?
37 µM

Entry CC(CC(=O)O)n1nc2c(Cl)c(Cl)c(Cl)c(Cl)c2n1 (centres undefined) has what CC50?
70 µM

Entry Clc1cc2nnn(C3CCCCO3)c2cc1Cl (centres undefined) has what CC50?
> 100 µM

Entry "CN1CCN(CCn2nnc3ccccc32)CC1" has what CC50?
> 100 µM

Entry "O=c1cnn([C@@H]2O[C@H](CO)[C@@H](O)[C@H]2O)c(=O)[nH]1" has what CC50?
> 100 µM

Entry "Nc1ccc(-n2nc3ccccc3n2)cc1" has what CC50?
100 µM

Entry "Cc1ccc2nn(-c3ccc(OCCCC(C)(C)C(=O)O)cc3)nc2c1" has what CC50?
24 µM

Entry "[O-][n+]1c2cc(C(F)(F)F)ccc2nn1-c1ccc(O)cc1" has what CC50?
72 µM

Entry "COc1cc(/C=C/C(=O)OCCn2nnc3ccccc32)cc(OC)c1OC" has what CC50?
70 µM

Entry "Clc1cc2nn(Cc3ccccc3)nc2cc1Cl" has what CC50?
> 100 µM

Entry CC(CC(=O)O)n1nnc2ccc([N+](=O)[O-])cc21 (centres undefined) has what CC50?
> 100 µM

Entry "Cc1ccc2nn(-c3ccc(OC(C)(C)C(=O)O)cc3)nc2c1" has what CC50?
> 100 µM

Entry "Oc1ccc(-n2nc3ccc(C(F)(F)F)cc3n2)cc1" has what CC50?
47 µM

Entry "COc1cc(C(=O)OCCCn2nc3ccccc3n2)cc(OC)c1OC" has what CC50?
> 100 µM

Entry "COc1ccc(-n2nc3ccc(C(F)(F)F)cc3n2)cc1" has what CC50?
> 100 µM

Entry "Oc1ccc(-n2nc3ccccc3n2)cc1" has what CC50?
≥ 100 µM

Entry "CC(C)(COc1ccc(-n2nc3ccccc3n2)cc1)C(=O)O" has what CC50?
> 100 µM

Entry "COc1cc(/C=C/C(=O)OCCn2nc3ccccc3n2)cc(OC)c1OC" has what CC50?
> 100 µM

Entry "CN(C)c1cccc(C(=O)OCCn2nc3ccccc3n2)c1" has what CC50?
> 100 µM

Entry "CC(C)(Oc1ccc(-n2nc3ccccc3n2)cc1)C(=O)O" has what CC50?
> 100 µM

Entry "COc1cc(C(=O)OCCn2nc3ccccc3n2)cc(OC)c1OC" has what CC50?
6 µM

Entry "FC(F)(F)c1ccc2c(c1)nnn2C[C@@H]1CCCN2CCCC[C@H]12" has what CC50?
> 100 µM

Entry CC(CC(=O)O)n1nc2ccc([N+](=O)[O-])cc2n1 (centres undefined) has what CC50?
> 100 µM

Entry "COc1ccc2nn(-c3ccc(OCC(C)(C)C(=O)O)cc3)nc2c1" has what CC50?
> 100 µM

Entry "COc1ccc(-n2nc3cc(Cl)c(Cl)cc3n2)cc1" has what CC50?
> 100 µM

Entry CC(CC(=O)O)n1nc2ccc3ccccc3c2n1 (centres undefined) has what CC50?
> 100 µM

Entry "O=C(Cn1nc2ccccc2n1)N1CCOCC1" has what CC50?
> 100 µM

Entry "COc1ccc(Cn2nnc3cc(Cl)c(Cl)cc32)cc1" has what CC50?
> 100 µM

Entry "O=C(Cn1nnc2ccccc21)N1CCOCC1" has what CC50?
> 100 µM

meta.source: ChEMBL document CHEMBL3734667
